experimental-target: KRAS^G12C::SOS1 (Homo sapiens)
Sequence (Q07889 whole entry, stated change not applied): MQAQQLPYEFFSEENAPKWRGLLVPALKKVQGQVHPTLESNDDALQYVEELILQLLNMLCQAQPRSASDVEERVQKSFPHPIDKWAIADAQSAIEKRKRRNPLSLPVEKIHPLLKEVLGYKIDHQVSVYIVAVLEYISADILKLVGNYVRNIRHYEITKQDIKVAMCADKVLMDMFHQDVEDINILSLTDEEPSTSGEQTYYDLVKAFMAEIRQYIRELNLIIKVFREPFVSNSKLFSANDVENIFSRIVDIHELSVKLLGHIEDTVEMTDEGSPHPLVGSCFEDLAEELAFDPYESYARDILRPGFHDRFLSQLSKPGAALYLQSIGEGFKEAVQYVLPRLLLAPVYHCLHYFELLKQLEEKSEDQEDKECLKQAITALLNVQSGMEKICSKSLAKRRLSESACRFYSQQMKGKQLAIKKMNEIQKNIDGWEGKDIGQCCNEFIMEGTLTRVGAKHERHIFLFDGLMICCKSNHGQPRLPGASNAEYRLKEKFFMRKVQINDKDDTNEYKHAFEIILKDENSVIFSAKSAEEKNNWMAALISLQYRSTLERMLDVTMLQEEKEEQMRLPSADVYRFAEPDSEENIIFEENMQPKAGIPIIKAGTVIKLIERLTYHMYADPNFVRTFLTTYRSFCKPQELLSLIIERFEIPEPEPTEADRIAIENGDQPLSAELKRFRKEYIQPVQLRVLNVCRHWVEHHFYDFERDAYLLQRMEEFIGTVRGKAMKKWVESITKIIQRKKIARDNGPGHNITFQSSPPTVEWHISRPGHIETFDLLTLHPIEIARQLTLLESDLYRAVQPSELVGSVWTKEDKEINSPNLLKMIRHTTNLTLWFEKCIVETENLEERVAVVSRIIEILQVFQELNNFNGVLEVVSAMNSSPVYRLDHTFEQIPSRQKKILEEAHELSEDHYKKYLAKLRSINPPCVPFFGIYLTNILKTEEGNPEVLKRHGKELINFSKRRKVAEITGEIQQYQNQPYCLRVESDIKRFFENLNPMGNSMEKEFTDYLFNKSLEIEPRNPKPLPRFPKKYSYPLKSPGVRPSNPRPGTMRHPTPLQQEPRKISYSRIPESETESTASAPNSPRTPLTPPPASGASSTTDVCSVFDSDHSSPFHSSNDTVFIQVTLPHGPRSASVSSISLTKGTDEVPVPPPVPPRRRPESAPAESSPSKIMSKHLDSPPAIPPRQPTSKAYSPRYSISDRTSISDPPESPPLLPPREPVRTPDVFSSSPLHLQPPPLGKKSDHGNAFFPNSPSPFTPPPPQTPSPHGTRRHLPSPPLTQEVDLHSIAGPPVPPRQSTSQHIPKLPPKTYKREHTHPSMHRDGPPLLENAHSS
procedure-details: KRAS G12C::SOS1 protein-protein interaction (PPI) inhibition assay (HTRF binding kit)
value-type: IC50

// worked examples, IC50 included
[[record]]
compound_structure = "C[C@@H](NC(=O)c1ccc(=O)n(-c2cccc(-c3cnnn3C)c2)c1)c1cc(N)cc(C(F)(F)F)c1"
reported_value = "< 1 µM"

[[record]]
compound_structure = "C[C@@H](NC(=O)c1ccc(=O)n(-c2cccc3cc[nH]c23)n1)c1cc(N)cc(C(F)(F)F)c1"
reported_value = "< 1 µM"

[[record]]
compound_structure = "CC(C)Oc1ccc(-n2nc(C(=O)N[C@H](C)c3cc(N)cc(C(F)(F)F)c3)ccc2=O)cc1"
reported_value = "< 1 µM"


Inquiry: Could you tell me which IC50 is on file for CNCc1sccc1-c1cccc([C@@H](C)NC(=O)c2ccc(=O)n(-c3ccccc3F)n2)c1 ?
Reply text: < 1 µM

Inquiry: What value of measured IC50 is listed for C[C@@H](NC(=O)c1ccc(=O)n(-c2ccc(OC(F)(F)F)cc2)n1)c1cccc(C(F)(F)CO)c1F ?
Reply text: < 1 µM

Inquiry: Endpoint output: IC50 of CNCc1ccc(Cl)cc1-c1ccc([C@@H](C)NC(=O)c2ccc(=O)n(C3CCOCC3)n2)s1 . Value?
Reply text: < 1 µM

Inquiry: Give its IC50 value. Item: C[C@@H](NC(=O)c1ccc(=O)n(-c2cccc(-c3cnnn3C)c2)c1)c1cccc(C(F)(F)CO)c1F
Reply text: < 1 µM

Inquiry: Reported IC50, compound C[C@@H](NC(=O)c1ccc(=O)n(-c2cccc(-c3cncs3)c2)n1)c1cc(N)cc(C(F)(F)F)c1 : ____
Reply text: < 1 µM

Inquiry: Find the recorded IC50 belonging to [2H]C([2H])([2H])n1nncc1-c1cccc(-n2nc(C(=O)N[C@H](C)c3cc(N)cc(C(F)(F)F)c3)ccc2=O)c1 and report it.
Reply text: < 1 µM

Inquiry: What value of IC50 has been recorded for this entry: C[C@@H](NC(=O)c1ccc(=O)n(-c2cccc(C(=O)N(C)C)c2F)n1)c1cccc(C(F)(F)CO)c1F
Reply text: < 1 µM

Inquiry: What does the data say about its IC50? Entry: C[C@@H](NC(=O)c1ccc(=O)n(-c2cccc(C(=O)N3CCNCC3)c2)n1)c1cc(N)cc(C(F)(F)F)c1
Reply text: < 1 µM

Inquiry: // returns reported IC50 for input C[C@@H](NC(=O)c1ccc(=O)n(-c2cccc(C(=O)N3CCCC3)c2F)n1)c1cc(N)cc(C(F)(F)F)c1
Reply text: < 1 µM

Inquiry: Query: IC50; subject: C[C@@H](NC(=O)c1ccc(=O)n(-c2cncc(-c3cnnn3C)c2)c1)c1cccc(C(F)(F)F)c1F
Reply text: < 1 µM

Inquiry: What does the record list as IC50 for C[C@@H](NC(=O)c1ccc(=O)n(-c2ccc3cnn(C)c3c2)n1)c1cc(N)cc(C(F)(F)F)c1 ?
Reply text: < 1 µM

Inquiry: Please give the measured IC50 for this compound: COCCn1nc(C(=O)N[C@H](C)c2cc(N)cc(C(F)(F)F)c2)ccc1=O
Reply text: < 1 µM
